# System Tested: recombinant human CCR5 receptor (Homo sapiens)
# Sequence (P51681 whole entry): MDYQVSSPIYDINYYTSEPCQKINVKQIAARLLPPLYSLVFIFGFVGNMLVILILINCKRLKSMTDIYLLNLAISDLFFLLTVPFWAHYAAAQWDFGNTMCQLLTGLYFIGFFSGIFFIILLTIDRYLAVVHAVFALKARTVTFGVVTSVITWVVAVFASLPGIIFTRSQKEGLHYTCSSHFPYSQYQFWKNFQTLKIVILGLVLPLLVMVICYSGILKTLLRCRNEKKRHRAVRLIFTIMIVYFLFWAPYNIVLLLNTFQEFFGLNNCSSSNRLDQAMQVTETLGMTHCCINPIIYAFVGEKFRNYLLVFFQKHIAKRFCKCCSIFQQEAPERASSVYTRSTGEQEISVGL
# Test Details: in vitro radioligand binding assay, inhibition of MIP-1α binding (scintillation proximity)
# Condition Label: displacement of 0.1 nM iodinated MIP-1α; membranes from Chinese hamster ovary cells expressing CCR5; negative log10 of IC50 (M); average if tested more than once
Readout Label: IC50 (M)

Take a look at these entries with their results.
[
  {
    "Compound": "CSc1ccc(Cc2noc(C3CCN(CCC(c4ccccc4)c4ccc(S(C)(=O)=O)cc4)CC3)n2)cc1 (stereo not shown)",
    "IC50 (M)": "6.31e-08"
  },
  {
    "Compound": "CS(=O)(=O)c1ccc([C@@H](CCN2CCC(n3cnc4cc(S(C)(=O)=O)ccc43)CC2)c2cccs2)cc1",
    "IC50 (M)": "1e-08"
  },
  {
    "Compound": "CS(=O)(=O)c1ccc([C@@H](CCN2CCC(n3cnc4cc(S(C)(=O)=O)ccc43)CC2)c2cccc(F)c2)cc1",
    "IC50 (M)": "1e-09"
  },
  {
    "Compound": "Cc1nnc(C(C)C)n1C1CCN(CC[C@H](c2ccc(S(C)(=O)=O)cc2)c2cccc(F)c2)CC1",
    "IC50 (M)": "3.98e-08"
  },
  {
    "Compound": "CS(=O)(=O)c1ccc([C@@H](CCN2CCC(n3cnc4cc(S(C)(=O)=O)ccc43)CC2)c2cc(F)cc(F)c2)cc1",
    "IC50 (M)": "1e-09"
  }
]

[1] Cc1noc(C2CCN(CC[C@@H](c3ccccc3)c3ccc(S(C)(=O)=O)cc3)CC2)n1
[2] CS(=O)(=O)c1ccc(Cc2noc(C3CCN(CC[C@@H](c4ccccc4)c4ccc(S(C)(=O)=O)cc4)CC3)n2)cc1
Consider 1 and 2 . Which of these has its IC50 at a higher number? // return label of chosen record
1
